- Experimental Target: Polyunsaturated fatty acid 5-lipoxygenase (Rattus norvegicus)
- Sequence (P12527 whole entry): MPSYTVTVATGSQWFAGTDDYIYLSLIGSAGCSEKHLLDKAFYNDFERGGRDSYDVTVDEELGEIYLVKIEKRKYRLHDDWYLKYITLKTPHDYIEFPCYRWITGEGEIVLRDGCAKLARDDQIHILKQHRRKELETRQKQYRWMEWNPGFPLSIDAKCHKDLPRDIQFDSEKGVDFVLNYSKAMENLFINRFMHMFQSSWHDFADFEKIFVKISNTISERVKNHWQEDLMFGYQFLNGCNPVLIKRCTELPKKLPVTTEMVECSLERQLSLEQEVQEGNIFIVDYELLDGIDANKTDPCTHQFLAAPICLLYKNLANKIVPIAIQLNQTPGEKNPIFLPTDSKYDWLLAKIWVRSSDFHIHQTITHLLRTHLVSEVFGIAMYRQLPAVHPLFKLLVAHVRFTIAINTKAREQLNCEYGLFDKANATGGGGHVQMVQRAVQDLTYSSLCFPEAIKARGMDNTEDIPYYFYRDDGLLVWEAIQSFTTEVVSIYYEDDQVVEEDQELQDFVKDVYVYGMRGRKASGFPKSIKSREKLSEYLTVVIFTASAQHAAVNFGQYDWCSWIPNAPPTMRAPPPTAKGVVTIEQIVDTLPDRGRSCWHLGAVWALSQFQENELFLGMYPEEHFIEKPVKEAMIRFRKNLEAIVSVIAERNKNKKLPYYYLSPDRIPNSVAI
- Assay Comment: In vitro for inhibition of 5-HETE production in isolated rat polymorphonuclear leukocytes (PMNs)
- Type: functional
Catalogue of pIC50 values
By convention, pIC50 is the negative base-10 log of a molar concentration.

Field: example entries. Status: answers known.
CCCCCCc1ccc(OCc2cccc(NC(=O)CC(=O)OC)c2)cc1OC : 5.80
COC(=O)CC(=O)Nc1cccc(COc2ccc(C(C)=O)c(F)c2)c1 : 4.59

// query Enter recorded pIC50 with Polyunsaturated fatty acid 5-lipoxygenase (Rattus norvegicus) for COC(=O)C(=O)Nc1cccc(COc2ccc(C(C)=O)c(O)c2)c1 here.
// result 4.60
